Assay: Plasma pharmacokinetics of ALM201 in Phase I patients (validated LC-MS/MS, Phoenix WinNonlin)
Settings: human, plasma, sc, 10 mg, Plasma concentration, geometric mean (CV%), 10 mg SC, day 18 cycle 6, 2 h after dosing, n = 1; LC-MS/MS
No end group written: not given here.
measured_metric: level at 2 h (ng/mL)
Answer with a number only, understood to be in ng/mL.

Entry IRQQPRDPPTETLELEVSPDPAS [ALM201] — recorded level at 2 h = 403

---

Assay: Plasma pharmacokinetics of ALM201 in Phase I patients (validated LC-MS/MS, Phoenix WinNonlin)
Settings: human, plasma, sc, 10 mg, Cmax, Gmean (CV), 10 mg SC, day 18 cycle 1, n = 1; plasma LC-MS/MS
No end group written: not given here.
measured_metric: Cmax
Quote the value and follow it with the unit of measurement.

Looking up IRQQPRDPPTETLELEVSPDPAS [ALM201] , I found its Cmax recorded as 352 ng/mL

---

Experiment: Plasma pharmacokinetics of ALM201 in Phase I patients (validated LC-MS/MS, Phoenix WinNonlin)
Details: human, plasma, sc, 100 mg, Cmax, Gmean (CV), 100 mg SC, day 3 cycle 1, n = 4; plasma LC-MS/MS
No end group written: not given here.
measured_metric: Cmax
Report as: number unit

Entry under test: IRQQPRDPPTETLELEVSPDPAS [ALM201] . Its Cmax was 2750 ng/mL

---

Assay: Plasma pharmacokinetics of ALM201 in Phase I patients (validated LC-MS/MS, Phoenix WinNonlin)
Conditions: human, plasma, sc, 100 mg, Tmax, median, 100 mg SC, day 3 cycle 1, n = 4; plasma LC-MS/MS
No end group written: not given here.
measured_metric: Tmax (h)
Enter your answer as a number in h; do not include the unit.

Quick note, Tmax for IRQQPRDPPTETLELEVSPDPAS [ALM201] landed at 1.61

---

Assay: Plasma pharmacokinetics of ALM201 in Phase I patients (validated LC-MS/MS, Phoenix WinNonlin)
Settings: human, plasma, sc, 160 mg, Plasma concentration, geometric mean (CV%), 160 mg SC, day 3 cycle 1, 5 h after dosing, n = 3; LC-MS/MS
No end group written: not given here.
measured_metric: level at 5 h (ng/mL)
Note: unit ng/mL is implicit; provide only the numeric part.

For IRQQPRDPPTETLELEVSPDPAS [ALM201] the sequence record lists level at 5 h as 613

---

Assay: Plasma pharmacokinetics of ALM201 in Phase I patients (validated LC-MS/MS, Phoenix WinNonlin)
Conditions: human, plasma, sc, 160 mg, Plasma concentration, geometric mean (CV%), 160 mg SC, day 3 cycle 1, 3.5 h after dosing, n = 3; LC-MS/MS
No end group written: not given here.
measured_metric: level at 3.5 h (ng/mL)
Reply numerically in ng/mL, unit not repeated.

// sample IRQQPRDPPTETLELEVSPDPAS [ALM201] , its level at 3.5 h was 926

---

Experiment: Plasma pharmacokinetics of ALM201 in Phase I patients (validated LC-MS/MS, Phoenix WinNonlin)
Details: human, plasma, sc, 300 mg, Tmax, median, 300 mg SC, day 18 cycle 6, n = 1; plasma LC-MS/MS
No end group written: not given here.
measured_metric: Tmax (h)
State just the number; it will be interpreted in h.

Tmax for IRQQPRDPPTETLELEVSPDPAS [ALM201] is 2.02

---

Test: Plasma pharmacokinetics of ALM201 in Phase I patients (validated LC-MS/MS, Phoenix WinNonlin)
Conditions: human, plasma, sc, 160 mg, AUC0-t, Gmean (CV), 160 mg SC, day 18 cycle 1, n = 3; plasma LC-MS/MS
No end group written: not given here.
measured_metric: AUC(0-t)
Give the figure together with its unit, number first.

The reported AUC(0-t) of the sequence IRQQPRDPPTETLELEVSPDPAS [ALM201] was 4.93 µg·h/mL

---

Assay: Plasma pharmacokinetics of ALM201 in Phase I patients (validated LC-MS/MS, Phoenix WinNonlin)
Conditions: human, plasma, sc, 40 mg, Cmax, Gmean (CV), 40 mg SC, day 1 cycle 1, n = 1; plasma LC-MS/MS
No end group written: not given here.
measured_metric: Cmax (ng/mL)
The reply should be a number in ng/mL, with the unit left off.

Given item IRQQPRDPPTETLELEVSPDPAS [ALM201] , the value recorded as its Cmax is 592

---

Assay: Plasma pharmacokinetics of ALM201 in Phase I patients (validated LC-MS/MS, Phoenix WinNonlin)
Details: human, plasma, sc, 200 mg, AUC0-t, Gmean (CV), 200 mg SC, day 3 cycle 1, n = 4; plasma LC-MS/MS
No end group written: not given here.
measured_metric: AUC(0-t) (ng·h/mL)
Write down the numeric answer in ng·h/mL and omit the unit.

GET /value?item= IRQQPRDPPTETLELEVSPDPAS [ALM201] &field=AUC(0-t) returns 6630

---

Assay: Plasma pharmacokinetics of ALM201 in Phase I patients (validated LC-MS/MS, Phoenix WinNonlin)
Conditions: human, plasma, sc, 40 mg, AUC0-t, Gmean (CV), 40 mg SC, day 1 cycle 1, n = 1; plasma LC-MS/MS
No end group written: not given here.
measured_metric: AUC(0-t) (ng·h/mL)
Value expressed in ng·h/mL; do not type the unit.

So, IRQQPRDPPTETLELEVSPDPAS [ALM201] ? Its AUC(0-t) was 1920

---

Experiment: Plasma pharmacokinetics of ALM201 in Phase I patients (validated LC-MS/MS, Phoenix WinNonlin)
Settings: human, plasma, sc, 10 mg, Tmax, median, 10 mg SC, day 18 cycle 4, n = 1; plasma LC-MS/MS
No end group written: not given here.
measured_metric: Tmax (h)
Express it in h; write the number only.

// Tmax lookup, sequence = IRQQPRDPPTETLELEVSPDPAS [ALM201] , result: 1.53

---

Assay: Plasma pharmacokinetics of ALM201 in Phase I patients (validated LC-MS/MS, Phoenix WinNonlin)
Conditions: human, plasma, sc, 200 mg, Plasma concentration, geometric mean (CV%), 200 mg SC, day 1 cycle 1, 6 h after dosing, n = 4; LC-MS/MS
No end group written: not given here.
measured_metric: level at 6 h (ng/mL)
Write the number in ng/mL without appending the unit.

Summary for this sequence, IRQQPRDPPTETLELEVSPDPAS [ALM201] : level at 6 h is 518

---

Test: Plasma pharmacokinetics of ALM201 in Phase I patients (validated LC-MS/MS, Phoenix WinNonlin)
Conditions: human, plasma, sc, 10 mg, Plasma concentration, geometric mean (CV%), 10 mg SC, day 18 cycle 2, 1 h after dosing, n = 1; LC-MS/MS
No end group written: not given here.
measured_metric: level at 1 h (ng/mL)
Respond with the bare value in ng/mL.

Item: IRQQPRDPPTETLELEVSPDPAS [ALM201] | level at 1 h: 193

---

Experiment: Plasma pharmacokinetics of ALM201 in Phase I patients (validated LC-MS/MS, Phoenix WinNonlin)
Details: human, plasma, sc, 20 mg, AUC0-t, Gmean (CV), 20 mg SC, day 18 cycle 1, n = 1; plasma LC-MS/MS
No end group written: not given here.
measured_metric: AUC(0-t) (ng·h/mL)
Report as a plain number; the unit ng·h/mL is understood.

AUC(0-t) reading for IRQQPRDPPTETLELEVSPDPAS [ALM201] : 718

---

Assay: Plasma pharmacokinetics of ALM201 in Phase I patients (validated LC-MS/MS, Phoenix WinNonlin)
Conditions: human, plasma, sc, 10 mg, Plasma concentration, geometric mean (CV%), 10 mg SC, day 1 cycle 1, 0.75 h after dosing, n = 1; LC-MS/MS
No end group written: not given here.
measured_metric: level at 0.75 h (ng/mL)
Write down the numeric answer in ng/mL and omit the unit.

level at 0.75 h reported for this sequence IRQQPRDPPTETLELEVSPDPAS [ALM201] : 150

---

Assay: Plasma pharmacokinetics of ALM201 in Phase I patients (validated LC-MS/MS, Phoenix WinNonlin)
Conditions: human, plasma, sc, 20 mg, Plasma concentration, geometric mean (CV%), 20 mg SC, day 18 cycle 2, 3.5 h after dosing, n = 1; LC-MS/MS
No end group written: not given here.
measured_metric: level at 3.5 h (ng/mL)
Quick note: give the figure in ng/mL, leave out the unit.

Input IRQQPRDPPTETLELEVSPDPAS [ALM201] . Output level at 3.5 h: 162

---

Assay: Plasma pharmacokinetics of ALM201 in Phase I patients (validated LC-MS/MS, Phoenix WinNonlin)
Settings: human, plasma, sc, 10 mg, Plasma concentration, geometric mean (CV%), 10 mg SC, day 18 cycle 1, 1 h after dosing, n = 1; LC-MS/MS
No end group written: not given here.
measured_metric: level at 1 h (ng/mL)
// units = ng/mL; emit number, no label

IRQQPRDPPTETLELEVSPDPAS [ALM201] yielded level at 1 h of 283

Values were extracted from paper PMC9276671.
